target: T1, human IL-36R extracellular domain expressed with a C-terminal myc-myc-hexahistidine tag (hIL-36R-MMH) (human, UniProt Q9HB29 20-337); experiment: SPR Biacore T200, mAb captured on anti-hFc, 25C, PBS-T pH 7.4 running buffer
T1 construct: also called Human IL-36R-MMH; REGN2105
T1 sequence (Q9HB29 other isoform, or with tags, fused parts or gaps limits assumed): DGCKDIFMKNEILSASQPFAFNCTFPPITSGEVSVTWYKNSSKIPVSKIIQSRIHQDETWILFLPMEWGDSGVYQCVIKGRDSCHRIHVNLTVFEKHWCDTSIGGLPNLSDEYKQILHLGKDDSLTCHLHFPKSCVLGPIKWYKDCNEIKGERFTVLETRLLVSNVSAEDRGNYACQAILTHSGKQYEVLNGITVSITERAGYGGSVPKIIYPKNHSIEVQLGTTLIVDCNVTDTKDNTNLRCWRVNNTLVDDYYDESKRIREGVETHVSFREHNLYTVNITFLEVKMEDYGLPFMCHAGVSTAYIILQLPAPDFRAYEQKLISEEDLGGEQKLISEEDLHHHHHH
# 100 nM Human IL-36R-MMH Bound (RU) per entry
REPORTED_ENDPOINT: 100 nM Human IL-36R-MMH Bound (RU)

binder="H4H14758P (antibody, human IgG4 S228P, kappa, V domains shown, Fully human anti-IL-36R antibody) VH: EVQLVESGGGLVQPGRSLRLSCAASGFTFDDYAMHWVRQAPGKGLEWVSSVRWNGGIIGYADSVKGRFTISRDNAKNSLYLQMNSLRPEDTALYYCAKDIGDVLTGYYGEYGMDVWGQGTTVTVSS VL: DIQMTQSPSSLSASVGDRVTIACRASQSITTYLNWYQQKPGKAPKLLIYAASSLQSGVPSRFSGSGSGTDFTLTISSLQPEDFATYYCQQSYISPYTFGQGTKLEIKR" reported_endpoint="100 nM Human IL-36R-MMH Bound (RU)" data_value=108
binder="H4H14699P2 (antibody, human IgG4 S228P, kappa, V domains shown, Fully human anti-IL-36R antibody) VH: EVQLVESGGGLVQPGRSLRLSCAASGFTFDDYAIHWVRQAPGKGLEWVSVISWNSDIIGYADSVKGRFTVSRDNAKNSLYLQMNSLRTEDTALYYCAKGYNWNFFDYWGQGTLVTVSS VL: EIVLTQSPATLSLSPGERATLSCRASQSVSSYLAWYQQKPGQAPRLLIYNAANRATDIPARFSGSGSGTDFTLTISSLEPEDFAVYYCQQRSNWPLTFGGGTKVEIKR" reported_endpoint="100 nM Human IL-36R-MMH Bound (RU)" data_value=84
binder="H4H14706P2 (antibody, human IgG4 S228P, kappa, V domains shown, Fully human anti-IL-36R antibody) VH: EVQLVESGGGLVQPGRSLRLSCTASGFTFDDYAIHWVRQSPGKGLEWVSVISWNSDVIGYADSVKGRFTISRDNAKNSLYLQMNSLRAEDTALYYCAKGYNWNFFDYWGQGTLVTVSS VL: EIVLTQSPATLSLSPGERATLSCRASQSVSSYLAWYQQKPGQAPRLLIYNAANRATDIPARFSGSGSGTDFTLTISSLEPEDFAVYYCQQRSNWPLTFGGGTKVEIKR" reported_endpoint="100 nM Human IL-36R-MMH Bound (RU)" data_value=119
